Protocol Description: Stability of the compound at room temperature at 10^-4 M incubated for 6 to 12 days under dark condition by HPLC method
Assay type: physicochemical
Test Conditions: 100 µM

{"Molecule": "C#CCOc1ccc(/C=C/C(=O)CC(=O)/C=C/c2ccc(OCC#C)c(OC)c2)cc1OC", "Stability": "Stable"}
{"Molecule": "COc1cc(/C=C/C(C)=O)ccc1O [DEHYDROZINGERONE]", "Stability": "Stable"}
{"Molecule": "COc1cc(/C=C/C(=O)CC(=O)/C=C/c2ccc(O)c(OC)c2)ccc1O", "Stability": "Stable"}

###

Protocol Description: Antiproliferative activity against human NCI-H460 cells measured after 48 hrs by sulforhodamine B assay
Assay type: functional
Test Conditions: NCI-H460, 48 h

{"Molecule": "COc1cc(/C=C/C(C)=O)ccc1OCCCNC(=O)OC(C)(C)C", "Censoring Operator": "=", "GI50 (µM)": 55.2}
{"Molecule": "COc1cc(/C=C/C(C)=O)ccc1O [DEHYDROZINGERONE]", "Censoring Operator": "=", "GI50 (µM)": 64.8}
{"Molecule": "COC(=O)COc1ccc(/C=C/C(C)=O)cc1OC", "Censoring Operator": ">", "GI50 (µM)": 150}
{"Molecule": "COc1cc(/C=C/C(=O)CC(=O)/C=C/c2ccc(OCc3cn(CCO[C@@H]4O[C@H](COC(C)=O)[C@H](OC(C)=O)[C@H](OC(C)=O)[C@H]4NC(C)=O)nn3)c(OC)c2)ccc1OCc1cn(CCO[C@@H]2O[C@H](COC(C)=O)[C@H](OC(C)=O)[C@H](OC(C)=O)[C@H]2NC(C)=O)nn1", "Censoring Operator": ">", "GI50 (µM)": 150}
{"Molecule": "C=CCOc1ccc(/C=C/C(C)=O)cc1OC", "Censoring Operator": "=", "GI50 (µM)": 41.5}
{"Molecule": "C#CCOc1ccc(/C=C/C(=O)CC(=O)/C=C/c2ccc(OCC#C)c(OC)c2)cc1OC", "Censoring Operator": "=", "GI50 (µM)": 3.4}
{"Molecule": "COc1cc(/C=C/C(=O)/C=C/c2ccc(O)c(OC)c2)ccc1O", "Censoring Operator": "=", "GI50 (µM)": 1.47}
{"Molecule": "C#CCOc1ccc(/C=C/C(C)=O)cc1OC", "Censoring Operator": "=", "GI50 (µM)": 52.7}

###

Protocol Description: Chemical stability of the compound in pH 7.4 phosphate buffered saline at 10^-4 M incubated for overnight by HPLC method
Assay type: physicochemical
Test Conditions: buffer, pH 7.4, 100 µM
Assay Endpoint: Stability

{"Compound": "COc1cc(/C=C/C(=O)/C=C/c2ccc(O)c(OC)c2)ccc1O", "Result": "Stable"}
{"Compound": "COc1cc(/C=C/C(C)=O)ccc1O [DEHYDROZINGERONE]", "Result": "Stable"}
{"Compound": "C#CCOc1ccc(/C=C/C(=O)CC(=O)/C=C/c2ccc(OCC#C)c(OC)c2)cc1OC", "Result": "Stable"}

###

Protocol Description: Chemical stability of the compound in pH 1 HCl buffer at 10^-4 M incubated for 75 mins by HPLC method
Assay type: physicochemical
Test Conditions: pH 1, 1.25 h, 100 µM

{"Molecule": "C#CCOc1ccc(/C=C/C(=O)CC(=O)/C=C/c2ccc(OCC#C)c(OC)c2)cc1OC", "Stability": "Stable"}
{"Molecule": "COc1cc(/C=C/C(C)=O)ccc1O [DEHYDROZINGERONE]", "Stability": "Stable"}
{"Molecule": "COc1cc(/C=C/C(=O)/C=C/c2ccc(O)c(OC)c2)ccc1O", "Stability": "Stable"}
